Reference source: paper PMC8920107

# test_protocol: Estimated volume of distribution, unbound volume of distribution and drug efficiency from biomimetic HPLC data
# study_conditions: human, standard 6 min protocol data
measurement_label: Vd (L/kg)
Response body: numeric value in L/kg, unit text excluded.

# Vd lookup, item CCN(CCO)CCCC(C)Nc1ccnc2cc(Cl)ccc12 (stereo not shown) [HCQ, hydroxy-chloroquine]
5.8

###

# system: human serum albumin (HSA) (Homo sapiens)
# Sequence (P02768 25-609): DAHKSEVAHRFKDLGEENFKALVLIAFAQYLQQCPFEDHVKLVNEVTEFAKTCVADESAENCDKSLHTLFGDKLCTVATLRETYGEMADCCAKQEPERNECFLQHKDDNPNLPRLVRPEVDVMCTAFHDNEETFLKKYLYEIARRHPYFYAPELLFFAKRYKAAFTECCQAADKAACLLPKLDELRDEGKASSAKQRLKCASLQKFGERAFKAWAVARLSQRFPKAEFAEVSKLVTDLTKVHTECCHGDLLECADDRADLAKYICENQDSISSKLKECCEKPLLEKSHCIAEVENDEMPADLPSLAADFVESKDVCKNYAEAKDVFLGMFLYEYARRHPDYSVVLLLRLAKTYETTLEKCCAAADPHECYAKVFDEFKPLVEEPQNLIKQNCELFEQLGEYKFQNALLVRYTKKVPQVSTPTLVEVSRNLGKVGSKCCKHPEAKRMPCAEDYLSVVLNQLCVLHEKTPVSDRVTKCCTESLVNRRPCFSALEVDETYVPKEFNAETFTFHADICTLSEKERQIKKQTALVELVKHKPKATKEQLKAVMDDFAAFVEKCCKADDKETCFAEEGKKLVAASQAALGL
# test_protocol: Albumin binding by biomimetic HPLC on Chiralpak HSA column
# study_conditions: human, Chiralpak HSA HPLC column (immobilised human serum albumin), pH 7.4
So I've got a bunch of compounds here, and I need their fraction unbound values.
// keep it numeric: no unit symbol after the value

# fraction unbound lookup, item CCN(CC)CCCC(C)Nc1ccnc2cc(Cl)ccc12 (centres unmarked) [CQ, Chloroquine]
0.178

Do the same for CCN(CCO)CCCC(C)Nc1ccnc2cc(Cl)ccc12 (centres unmarked) [HCQ, hydroxy-chloroquine] please
0.181

###

# test_protocol: Chromatographic Hydrophobicity Index (CHI) lipophilicity at three pHs, C-18 gradient HPLC
# Assay type: physicochemical
# study_conditions: Gemini NX C-18(2) HPLC column; pH 7.4, C-18 gradient HPLC; racemate not resolved; read-out: CHI log D (pH 7.4)
measurement_label: chromatographic logD
// keep it numeric: no unit symbol after the value

# chromatographic logD lookup, item CCN(CCO)CCCC(C)Nc1ccnc2cc(Cl)ccc12 (stereo not shown) [HCQ, hydroxy-chloroquine]
0.66

###

Entries with their measured log k (HSA), system HSA:
// keep it numeric: no unit symbol after the value

Request: log k (HSA), test system HSA, entry CC(=O)CC(c1ccccc1)c1c(O)c2ccccc2oc1=O (centres unmarked) [Warfarin]
1.5

Do the same for COc1ccc2c(c1)c(CC(=O)O)c(C)n2C(=O)c1ccc(Cl)cc1 [Indomethacin] please
1.8

Do the same for CC(C)NCC(O)COc1cccc2ccccc12 (centres unmarked) [Propranolol] please
0.3

Do the same for COC(=O)C1=C(C)NC(C)=C(C(=O)OCCN(C)Cc2ccccc2)C1c1cccc([N+](=O)[O-])c1 (centres unmarked) [Nicardipine] please
1.2

Do the same for CNC(=C[N+](=O)[O-])NCCSCc1csc(CN(C)C)n1 [Nizatidine] please
-0.6

Do the same for COc1cc(Cc2cnc(N)nc2N)cc(OC)c1OC [Trimethoprim] please
-0.2

Do the same for NC(=O)N1c2ccccc2C=Cc2ccccc21 [Carbamazepine] please
0.5

Do the same for CC(=O)Nc1ccc(O)cc1 [Paracetamol] please
-0.8

###

# test_protocol: Human plasma protein binding by rapid equilibrium dialysis (RED)
# Type: in vitro ADME
# study_conditions: 100 % pooled human plasma, pH 7.4, 37 °C
measurement_label: fraction unbound

# fraction unbound lookup, item CCN(CC)CCCC(C)Nc1ccnc2cc(Cl)ccc12 (centres unmarked)
0.474

Do the same for CCN(CCO)CCCC(C)Nc1ccnc2cc(Cl)ccc12 (centres unmarked) [HCQ, hydroxy-chloroquine] please
0.693

###

# test_protocol: Estimated brain tissue binding and brain to blood ratio from biomimetic HPLC data (model equations)
# study_conditions: standard 6 min protocol data; read-out: Brain to plasma
So I've got a bunch of compounds here, and I need their Kp at 0.1 h values.

# Kp at 0.1 h lookup, item CCN(CC)CCCC(C)Nc1ccnc2cc(Cl)ccc12 (centres unmarked)
3.4

Do the same for CCN(CCO)CCCC(C)Nc1ccnc2cc(Cl)ccc12 (centres unmarked) [HCQ, hydroxy-chloroquine] please
2.8
